IC50 listing for selected sequences.
- TARGET_OF_ASSAY: DRB5*0101 (DR2w2a) (Homo sapiens, UniProt P01903+Q30154)
- Construct: used as sources of human HLA class II molecules; endogenous in cells; host or cells: GM3107 (EBV-transformed homozygous B cell line)
- ASSAY_METHOD_TEXT: Class II peptide-binding assay, DR2w2a (DR2w2B2);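 further: competitive binding assay: unlabeled peptide inhibiting binding of a radiolabeled probe peptide to purified DR molecules at pH 7.0, IC50 approximating Kd, lower means stronger binding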
- MEASUREMENT_PARAMETERS: purified HLA DR2w2β2; read-out: DR2w2B2 nM (In IC50 Format)
Ends that are not written are not given here.
PARAMETER: IC50 (nM)

primary_sequence="LMQYIKANSKFIGITE [Peptide 812.03]" target_of_assay="DRB5*0101 (DR2w2a) (Homo sapiens, UniProt P01903+Q30154)" readout_number=4.9
primary_sequence="MQYIKANSKFIGITE [Peptide 812.05]" target_of_assay="DRB5*0101 (DR2w2a) (Homo sapiens, UniProt P01903+Q30154)" readout_number=2.4
